B1: TOR1AIP2 (parent)
chain: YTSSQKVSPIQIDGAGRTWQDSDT

variants of: B1; assay: protein stability index of a GFP-peptide fusion (GPS, HEK-293T) (PSI 1-6); higher = more stable; settings: c terminus: a fixed tail appended;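 further: lentivirally expressed fusions sorted by FACS into six bins by GFP to DsRed ratio, PSI derived from sequencing read proportions per bin multiplied by bin number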
assay metric: protein stability index
Give only the figure.

Look over these answered cases.
mutation descriptor: T18G
protein stability index: 3.47

mutation descriptor: S3G
protein stability index: 3.61

mutation descriptor: I12C
protein stability index: 2.7

mutation descriptor: D21G
protein stability index: 2.62

mutation descriptor: V7S
protein stability index: 3.52

mutation descriptor: A15C
protein stability index: 3.03

INPUT: Bench note: what protein stability index did `T24W` show?
OUTPUT: 2.87

INPUT: Field entry: `V7R`
OUTPUT: 3.43

INPUT: Field entry: `I12T`
OUTPUT: 3.65

INPUT: Field entry: `T24V`
OUTPUT: 2.86
